measurement notes: LD50 in mice
Assay type: in vivo
setup conditions: mouse, in vivo, intraperitoneal; injection in abdominal cavity in mice
measurement name: LD50 (mg/kg)
Numeric answer only, unit mg/kg assumed.

Answer with the recorded LD50 for the molecule listed here: COC(=O)C[C@](O)(CCCC(C)(C)O)C(=O)O[C@@H]1C(OC)=C[C@]23CCCN2CCc2cc4c(cc2[C@H]13)OCO4
4.07
